target.of.assay: StNagZ (Salmonella typhimurium, UniProt Q8ZQ06)
Construct: made in house
procedure.details: Kinetic analysis of inhibitors against StNagZ
Format: biochemical
experimental.context: selectivity ratio
property.label: S.R. (Ki OGA/Ki StNagZ)

Would you be so kind as to report S.R. (Ki OGA/Ki StNagZ) for each listed record?
1. CCCC(=O)N[C@H]1CN[C@H](CO)[C@@H](O)[C@@H]1O [Compound 21]
2. CC(=O)N[C@H]1CN[C@H](CO)[C@@H](O)[C@@H]1O [Compound 1]
3. CCCCC(=O)N[C@H]1CN[C@H](CO)[C@@H](O)[C@@H]1O [Compound 22]
4. CC(C)CC(=O)N[C@H]1CN[C@H](CO)[C@@H](O)[C@@H]1O [Compound 25]
5. CCC(=O)N[C@H]1CN[C@H](CO)[C@@H](O)[C@@H]1O [Compound 20]
6. CC(C)C(=O)N[C@H]1CN[C@H](CO)[C@@H](O)[C@@H]1O [Compound 24]
7. CCCCCC(=O)N[C@H]1CN[C@H](CO)[C@@H](O)[C@@H]1O [Compound 23]

result:
1: >22; 2: 0.94; 3: >21; 4: >3.4; 5: 2.9; 6: >40; 7: >10

====

target.of.assay: O-GlcNAcase (OGA) (Homo sapiens, UniProt O60502)
Sequence (O60502 1-916): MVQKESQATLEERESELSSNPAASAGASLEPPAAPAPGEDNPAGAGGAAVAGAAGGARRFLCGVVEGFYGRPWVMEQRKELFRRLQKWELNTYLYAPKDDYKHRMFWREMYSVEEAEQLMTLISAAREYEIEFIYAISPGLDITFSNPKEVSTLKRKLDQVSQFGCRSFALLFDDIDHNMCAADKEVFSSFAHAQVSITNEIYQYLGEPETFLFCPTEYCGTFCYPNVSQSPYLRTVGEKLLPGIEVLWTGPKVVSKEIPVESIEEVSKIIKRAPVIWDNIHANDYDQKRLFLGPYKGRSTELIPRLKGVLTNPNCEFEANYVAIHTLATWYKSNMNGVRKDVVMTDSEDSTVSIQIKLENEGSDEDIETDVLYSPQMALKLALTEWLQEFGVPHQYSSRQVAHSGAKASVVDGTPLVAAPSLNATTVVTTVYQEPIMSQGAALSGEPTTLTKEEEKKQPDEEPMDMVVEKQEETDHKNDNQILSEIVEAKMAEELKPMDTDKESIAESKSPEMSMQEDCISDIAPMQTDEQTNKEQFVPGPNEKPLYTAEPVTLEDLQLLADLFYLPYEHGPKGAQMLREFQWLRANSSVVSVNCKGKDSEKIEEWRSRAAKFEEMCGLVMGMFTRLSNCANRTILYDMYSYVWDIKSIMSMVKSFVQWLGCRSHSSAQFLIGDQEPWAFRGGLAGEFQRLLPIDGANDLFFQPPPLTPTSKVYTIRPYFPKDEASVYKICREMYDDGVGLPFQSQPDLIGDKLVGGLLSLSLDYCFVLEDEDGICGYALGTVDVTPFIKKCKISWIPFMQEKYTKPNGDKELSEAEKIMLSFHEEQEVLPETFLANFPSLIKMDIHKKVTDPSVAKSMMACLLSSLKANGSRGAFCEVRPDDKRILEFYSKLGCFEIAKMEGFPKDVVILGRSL
What Ki was measured for each of the following?

Consider the reported Ki for these compounds:
query: Quick check: Ki of CC(=O)N[C@H]1CN[C@H](CO)[C@@H](O)[C@@H]1O [Compound 1] ?
result: 23 µM

query: Quick check: Ki of CCCCC(=O)N[C@H]1CN[C@H](CO)[C@@H](O)[C@@H]1O [Compound 22] ?
result: > 1000 µM

query: Quick check: Ki of CCCCCC(=O)N[C@H]1CN[C@H](CO)[C@@H](O)[C@@H]1O [Compound 23] ?
result: > 1000 µM

query: Quick check: Ki of CC(C)C(=O)N[C@H]1CN[C@H](CO)[C@@H](O)[C@@H]1O [Compound 24] ?
result: > 1000 µM

query: Quick check: Ki of CC(C)CC(=O)N[C@H]1CN[C@H](CO)[C@@H](O)[C@@H]1O [Compound 25] ?
result: > 1000 µM

Would you be so kind as to report Ki for each listed record?
1. CCCC(=O)N[C@H]1CN[C@H](CO)[C@@H](O)[C@@H]1O [Compound 21]
2. CCC(=O)N[C@H]1CN[C@H](CO)[C@@H](O)[C@@H]1O [Compound 20]

result:
> 500 µM
130 µM

====

What Ki was measured for each of the following?
target.of.assay: β-hexosaminidase B (Homo sapiens, UniProt P07686)
Sequence (P07686 122-556): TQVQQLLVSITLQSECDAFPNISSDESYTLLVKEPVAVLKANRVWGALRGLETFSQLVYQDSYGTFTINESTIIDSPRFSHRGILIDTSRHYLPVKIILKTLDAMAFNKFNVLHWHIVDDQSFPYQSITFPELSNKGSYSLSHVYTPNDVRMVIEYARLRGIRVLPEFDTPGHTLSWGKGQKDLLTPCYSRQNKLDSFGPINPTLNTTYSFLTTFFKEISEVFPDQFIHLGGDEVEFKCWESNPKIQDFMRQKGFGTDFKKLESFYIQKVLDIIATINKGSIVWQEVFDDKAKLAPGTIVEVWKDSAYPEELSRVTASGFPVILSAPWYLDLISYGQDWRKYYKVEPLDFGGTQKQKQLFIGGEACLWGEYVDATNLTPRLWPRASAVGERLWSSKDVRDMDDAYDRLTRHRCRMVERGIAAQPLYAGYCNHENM

Consider the reported Ki for these compounds:
query: Quick check: Ki of CCCCC(=O)N[C@H]1CN[C@H](CO)[C@@H](O)[C@@H]1O [Compound 22] ?
result: > 5 mM

query: Quick check: Ki of CC(C)CC(=O)N[C@H]1CN[C@H](CO)[C@@H](O)[C@@H]1O [Compound 25] ?
result: > 5 mM

Please look at the following compound next.
query: Quick check: Ki of CCCCCC(=O)N[C@H]1CN[C@H](CO)[C@@H](O)[C@@H]1O [Compound 23] ?
result: > 5 mM

// provenance: paper PMC3920638
